- test.system: NrdB (Pseudomonas aeruginosa)
- Construct: homodimer concentrations; apoNrdB reconstituted with Fe2+ for EPR
- Sequence (Q9I4I2 1-415): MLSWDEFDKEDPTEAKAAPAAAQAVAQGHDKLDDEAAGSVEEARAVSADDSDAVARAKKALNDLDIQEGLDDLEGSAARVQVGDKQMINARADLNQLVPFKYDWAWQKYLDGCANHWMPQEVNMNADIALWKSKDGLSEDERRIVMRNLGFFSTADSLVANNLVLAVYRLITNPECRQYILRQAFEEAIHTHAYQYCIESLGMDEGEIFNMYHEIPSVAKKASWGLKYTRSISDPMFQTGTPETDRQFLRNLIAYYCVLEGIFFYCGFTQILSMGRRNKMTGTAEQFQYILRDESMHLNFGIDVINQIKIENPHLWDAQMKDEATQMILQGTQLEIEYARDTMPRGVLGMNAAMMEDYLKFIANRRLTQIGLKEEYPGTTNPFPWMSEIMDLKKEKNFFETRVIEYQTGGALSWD
- protocol.details: EPR, tyrosyl radical quenching
- Type: biochemical
- settings: 133 µM compound, 15 µM Fe-reconstituted NrdB, 50 mM Tris pH 7.5, 1% DMSO, no DTT; corrected for control decay
Reported Tyrosyl radical decay rate and radical left after 10 min / NrdB only^a values for a set of compounds
assay.endpoint: Tyrosyl radical decay rate and radical left after 10 min / NrdB only^a (min⁻¹)

{"compound": "CC(=O)c1cc(O)c2ccccc2c1O [compound 111552, NSC111552]", "test.system": "NrdB (Pseudomonas aeruginosa)", "unit.text": "min⁻¹", "experimental.value": 0.19}
{"compound": "O=C(Nc1ccc(Cl)c(Cl)c1)Nc1ccccc1O [compound 522131, NSC522131]", "test.system": "NrdB (Pseudomonas aeruginosa)", "unit.text": "min⁻¹", "experimental.value": 0.35}
{"compound": "CCOC(=O)/C=C(/C)Sc1cc(O)c2ccccc2c1O [compound 278631, NSC278631]", "test.system": "NrdB (Pseudomonas aeruginosa)", "unit.text": "min⁻¹", "experimental.value": 0.40}
{"compound": "N#Cc1c(C#N)c(O)c2ccccc2c1O [compound 128281, NSC128281]", "test.system": "NrdB (Pseudomonas aeruginosa)", "unit.text": "min⁻¹", "experimental.value": 0.30}
